Attribution: the supplement of paper PMC10307832

# Tested on: NCI-H1915
# Assay details: relative viability (nuclei count vs DMSO), 5 days (fraction); higher = more cells survive
# Test conditions: first compound 8 µM
Readout name: relative viability
Keep the answer to the number alone.

# count of solved cases: 2
# Compound, relative viability
records = [
    ("O=c1cc(-c2cccc3c2Sc2ccccc2S3)oc(N2CCOCC2)c1 + Nc1nc2[nH]cc(CCc3ccc(C(=O)N[C@@H](CCC(=O)O)C(=O)O)cc3)c2c(=O)[nH]1 [Pemetrexed] (partner 0.2 µM)", 0.405),
    ("O=c1cc(-c2cccc3c2Sc2ccccc2S3)oc(N2CCOCC2)c1 + COc1cccc2cc(-c3nc([C@H]4CC[C@H](C(=O)O)CC4)n4ncnc(N)c34)[nH]c12 [OSI-027] (partner 0.5 µM)", 0.678),
]

# context switch: different compound, same relative viability
QUERY: May I ask what relative viability has been recorded for O=c1cc(-c2cccc3c2Sc2ccccc2S3)oc(N2CCOCC2)c1 + Cc1cc(Nc2cc(N3CCN(C)CC3)nc(Sc3ccc(NC(=O)C4CC4)cc3)n2)n[nH]1 [Tozasertib] (partner 0.1 µM) ?
RESULT: 0.332

---

# Test system: HCC-44
# Assay details: relative viability (nuclei count vs DMSO), 5 days (fraction); higher = more cells survive
# Test conditions: first compound 0.1 µM
Readout name: relative viability
Keep the answer to the number alone.

# Molecule, Tested on, relative viability
records = [
    ("CCN(CC)CCCCNc1ncc2cc(-c3cc(OC)cc(OC)c3)c(NC(=O)NC(C)(C)C)nc2n1 + Nc1ncn([C@H]2C[C@H](O)[C@@H](CO)O2)c(=O)n1 [Decitabine] (partner 2 µM)", "HCC-44", 1.02),
    ("CCN(CC)CCCCNc1ncc2cc(-c3cc(OC)cc(OC)c3)c(NC(=O)NC(C)(C)C)nc2n1 + O=C(c1cc(Cc2n[nH]c(=O)c3ccccc23)ccc1F)N1CCN(C(=O)C2CC2)CC1 [Olaparib] (partner 8 µM)", "HCC-44", 1.03),
    ("CCN(CC)CCCCNc1ncc2cc(-c3cc(OC)cc(OC)c3)c(NC(=O)NC(C)(C)C)nc2n1 + Cc1nc(NC(=O)N2CCC[C@H]2C(N)=O)sc1-c1ccnc(C(C)(C)C(F)(F)F)c1 [Alpelisib] (partner 2 µM)", "HCC-44", 1.12),
    ("CCN(CC)CCCCNc1ncc2cc(-c3cc(OC)cc(OC)c3)c(NC(=O)NC(C)(C)C)nc2n1 + CC(C)C[C@H](NC(=O)[C@H](Cc1ccccc1)NC(=O)c1cnccn1)B(O)O [Bortezomib] (partner 0.002 µM)", "HCC-44", 1.08),
    ("CCN(CC)CCCCNc1ncc2cc(-c3cc(OC)cc(OC)c3)c(NC(=O)NC(C)(C)C)nc2n1 + CS(=O)(=O)CCNCc1ccc(-c2ccc3ncnc(Nc4ccc(OCc5cccc(F)c5)c(Cl)c4)c3c2)o1 [Lapatinib] (partner 2 µM)", "HCC-44", 1.26),
    ("O=c1cc(N2CCOCC2)oc2c(-c3cccc4c3sc3ccccc34)cccc12 + CC(C)C[C@H](NC(=O)[C@H](Cc1ccccc1)NC(=O)c1cnccn1)B(O)O [Bortezomib] (partner 0.002 µM)", "HCC-44", 0.906),
    ("O=c1cc(N2CCOCC2)oc2c(-c3cccc4c3sc3ccccc34)cccc12 + CS(=O)(=O)CCNCc1ccc(-c2ccc3ncnc(Nc4ccc(OCc5cccc(F)c5)c(Cl)c4)c3c2)o1 [Lapatinib] (partner 2 µM)", "HCC-44", 1.11),
    ("CCN(CC)CCCCNc1ncc2cc(-c3cc(OC)cc(OC)c3)c(NC(=O)NC(C)(C)C)nc2n1 + N=C(N)NC(=N)NCCc1ccccc1 [Phenformin] (partner 250 µM)", "HCC-44", 0.237),
]

QUERY: May I ask what relative viability has been recorded for CCN(CC)CCCCNc1ncc2cc(-c3cc(OC)cc(OC)c3)c(NC(=O)NC(C)(C)C)nc2n1 + CC1(C)CCC(c2ccc(Cl)cc2)=C(CN2CCN(c3ccc(C(=O)NS(=O)(=O)c4ccc(N[C@H](CCN5CCOCC5)CSc5ccccc5)c(S(=O)(=O)C(F)(F)F)c4)cc3)CC2)C1 [Navitoclax] (partner 0.5 µM) ?
RESULT: 1.02

QUERY: // same read-out, input: O=c1cc(N2CCOCC2)oc2c(-c3cccc4c3sc3ccccc34)cccc12 + O=C(c1cc(Cc2n[nH]c(=O)c3ccccc23)ccc1F)N1CCN(C(=O)C2CC2)CC1 [Olaparib] (partner 8 µM)
RESULT: 0.917

QUERY: // same read-out, input: O=c1cc(N2CCOCC2)oc2c(-c3cccc4c3sc3ccccc34)cccc12 + NC(=O)Nc1cc(-c2cccc(F)c2)sc1C(=O)N[C@H]1CCCNC1 [AZD7762] (partner 0.2 µM)
RESULT: 0.973
